FYI, the data here is from patent US20110318339A1.

- TESTED ON: T1, recombinant human DLL4 (Cat# 1506-D4/CF, R&D Systems) (human, UniProt Q9NR61 27-529)
- T1 construct: Bought protein; also called hDLL4; rHuman DLL4
- PROTOCOL TEXT: ELISA, DLL4 coated, Fab 25 nM
ELISA absorbance at 450 nm listing for selected binders.
Lab book: enter the figure in A450, no units written.

INSERT INTO results (binder, measured_attribute, u, recorded_result) VALUES
  ('Fab VH5-51_IGHD5-18*01>3_IGHJ4*01 G100K/G104T S28R & V3-4_IGLJ1*01 (Fab, V domains shown, Fab made in E. coli: VH on CH1 with His6 and Flag tags (Plasmid A), VL on lambda CL (Plasmid E); also called H: KT S28R & L: wt) VH: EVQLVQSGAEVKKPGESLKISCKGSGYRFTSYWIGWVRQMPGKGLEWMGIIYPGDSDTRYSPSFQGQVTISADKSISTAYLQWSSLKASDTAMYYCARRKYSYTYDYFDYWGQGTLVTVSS VL: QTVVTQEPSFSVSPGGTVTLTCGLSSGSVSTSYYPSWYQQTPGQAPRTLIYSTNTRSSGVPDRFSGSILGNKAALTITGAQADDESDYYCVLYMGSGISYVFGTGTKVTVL', 'ELISA absorbance at 450 nm', 'A450', 0.2),
  ('Fab VH5-51_IGHD5-18*01>3_IGHJ4*01 G100K/G104T G24T/S28R/G35V & V3-4_IGLJ1*01 V91L/S96P S52F (Fab, V domains shown, Fab made in E. coli: VH on CH1 with His6 and Flag tags (Plasmid A), VL on lambda CL (Plasmid E); also called H: KT TRV & L: LP S52F) VH: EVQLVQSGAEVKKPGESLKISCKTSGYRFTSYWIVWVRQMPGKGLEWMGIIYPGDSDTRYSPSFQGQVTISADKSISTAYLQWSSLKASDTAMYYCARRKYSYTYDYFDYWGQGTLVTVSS VL: QTVVTQEPSFSVSPGGTVTLTCGLSSGSVSTSYYPSWYQQTPGQAPRTLIYFTNTRSSGVPDRFSGSILGNKAALTITGAQADDESDYYCLLYMGPGISYVFGTGTKVTVL', 'ELISA absorbance at 450 nm', 'A450', 0.49),
  ('Fab VH5-51_IGHD5-18*01>3_IGHJ4*01 G100K/G104T G24T/S28R/G35V & V3-4_IGLJ1*01 V91L/S96P S52V (Fab, V domains shown, Fab made in E. coli: VH on CH1 with His6 and Flag tags (Plasmid A), VL on lambda CL (Plasmid E); also called H: KT TRV & L: LP S52V) VH: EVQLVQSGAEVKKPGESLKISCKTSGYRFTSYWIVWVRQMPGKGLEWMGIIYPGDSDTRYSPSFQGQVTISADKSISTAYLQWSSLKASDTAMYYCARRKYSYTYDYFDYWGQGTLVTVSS VL: QTVVTQEPSFSVSPGGTVTLTCGLSSGSVSTSYYPSWYQQTPGQAPRTLIYVTNTRSSGVPDRFSGSILGNKAALTITGAQADDESDYYCLLYMGPGISYVFGTGTKVTVL', 'ELISA absorbance at 450 nm', 'A450', 0.6),
  ('Fab VH5-51_IGHD5-18*01>3_IGHJ4*01 G100K/G104T G24T/S28R/G35V & V3-4_IGLJ1*01 V91L/S96P S52H (Fab, V domains shown, Fab made in E. coli: VH on CH1 with His6 and Flag tags (Plasmid A), VL on lambda CL (Plasmid E); also called H: KT TRV & L: LP S52H) VH: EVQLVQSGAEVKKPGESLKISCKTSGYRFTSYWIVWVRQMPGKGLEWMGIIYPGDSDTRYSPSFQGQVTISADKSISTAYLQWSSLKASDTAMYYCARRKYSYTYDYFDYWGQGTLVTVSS VL: QTVVTQEPSFSVSPGGTVTLTCGLSSGSVSTSYYPSWYQQTPGQAPRTLIYHTNTRSSGVPDRFSGSILGNKAALTITGAQADDESDYYCLLYMGPGISYVFGTGTKVTVL', 'ELISA absorbance at 450 nm', 'A450', 0.73);

Q. ELISA absorbance at 450 nm lookup needed for Fab VH1-46_IGHD6-6*01_IGHJ1*01 S102A/S103P/S104F/H111F & L6_IGKJ1*01 S28N/S30D/S31H N53H (Fab, V domains shown, Fab made in E. coli: VH on CH1 with His6 and Flag tags (Plasmid A), VL on kappa CL (Plasmid C); also called H: APFF & L: NDH N53H) VH: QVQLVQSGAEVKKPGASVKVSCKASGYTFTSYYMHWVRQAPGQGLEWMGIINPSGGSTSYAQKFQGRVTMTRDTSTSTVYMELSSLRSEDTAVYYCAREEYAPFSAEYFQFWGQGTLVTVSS VL: EIVLTQSPATLSLSPGERATLSCRASQNVDHYLAWYQQKPGQAPRLLIYDASHRATGIPARFSGSGSGTDFTLTISSLEPEDFAVYYCQQRSNWPPWTFGQGTKVEIKR , thanks.
A. 0.238

Q. ELISA absorbance at 450 nm lookup needed for Fab VH5-51_IGHD5-18*01>3_IGHJ4*01 G100K/G104T G24T/S28R/G35V & V3-4_IGLJ1*01 V91L/S96P (Fab, V domains shown, Fab made in E. coli: VH on CH1 with His6 and Flag tags (Plasmid A), VL on lambda CL (Plasmid E); also called H: KT TRV & L: LP) VH: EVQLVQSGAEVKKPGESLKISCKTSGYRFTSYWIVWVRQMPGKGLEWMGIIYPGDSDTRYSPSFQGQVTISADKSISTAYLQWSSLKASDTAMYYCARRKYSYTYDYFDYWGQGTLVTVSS VL: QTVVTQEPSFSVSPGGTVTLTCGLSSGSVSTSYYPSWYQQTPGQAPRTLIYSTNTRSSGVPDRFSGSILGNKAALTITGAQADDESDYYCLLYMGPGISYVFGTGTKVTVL , thanks.
A. 0.58

Q. ELISA absorbance at 450 nm lookup needed for Fab VH5-51_IGHD5-18*01>3_IGHJ4*01 G100K/G104T G24T/S28R/G35V & V3-4_IGLJ1*01 (Fab, V domains shown, Fab made in E. coli: VH on CH1 with His6 and Flag tags (Plasmid A), VL on lambda CL (Plasmid E); also called H: KT TRV & L: wt) VH: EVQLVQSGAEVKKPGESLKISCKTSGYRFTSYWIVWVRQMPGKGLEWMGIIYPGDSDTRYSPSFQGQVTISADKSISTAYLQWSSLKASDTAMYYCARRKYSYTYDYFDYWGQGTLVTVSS VL: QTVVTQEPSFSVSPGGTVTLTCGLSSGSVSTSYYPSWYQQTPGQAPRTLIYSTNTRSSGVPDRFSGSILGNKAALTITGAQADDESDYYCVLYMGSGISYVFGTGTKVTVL , thanks.
A. 0.26

Q. ELISA absorbance at 450 nm lookup needed for Fab VH1-46_IGHD6-6*01_IGHJ1*01 S102A/S103P/S104F/H111F & L6_IGKJ1*01 S28N/S30D/S31H S52T (Fab, V domains shown, Fab made in E. coli: VH on CH1 with His6 and Flag tags (Plasmid A), VL on kappa CL (Plasmid C); also called H: APFF & L: NDH S52T) VH: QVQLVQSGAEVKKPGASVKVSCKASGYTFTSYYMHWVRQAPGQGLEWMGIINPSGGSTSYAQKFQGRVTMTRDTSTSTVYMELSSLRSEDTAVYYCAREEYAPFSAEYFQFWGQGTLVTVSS VL: EIVLTQSPATLSLSPGERATLSCRASQNVDHYLAWYQQKPGQAPRLLIYDATNRATGIPARFSGSGSGTDFTLTISSLEPEDFAVYYCQQRSNWPPWTFGQGTKVEIKR , thanks.
A. 0.323

Q. ELISA absorbance at 450 nm lookup needed for Fab VH5-51_IGHD5-18*01>3_IGHJ4*01 G100K/G104T & V3-4_IGLJ1*01 (Fab, V domains shown, Fab made in E. coli: VH on CH1 with His6 and Flag tags (Plasmid A), VL on lambda CL (Plasmid E); also called H: KT & L: wt) VH: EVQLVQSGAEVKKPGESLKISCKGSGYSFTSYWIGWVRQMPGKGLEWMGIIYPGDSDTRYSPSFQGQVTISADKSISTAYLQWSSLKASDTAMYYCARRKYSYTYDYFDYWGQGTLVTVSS VL: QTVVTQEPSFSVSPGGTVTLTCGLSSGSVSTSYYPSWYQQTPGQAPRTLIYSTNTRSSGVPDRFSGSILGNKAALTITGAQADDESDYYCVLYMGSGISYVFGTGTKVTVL , thanks.
A. 0.16

Q. ELISA absorbance at 450 nm lookup needed for Fab VH1-46_IGHD6-6*01_IGHJ1*01 S102A/S103P/S104F/H111F & L6_IGKJ1*01 S28N/S30D/S31H A55G (Fab, V domains shown, Fab made in E. coli: VH on CH1 with His6 and Flag tags (Plasmid A), VL on kappa CL (Plasmid C); also called H: APFF & L: NDH A55G) VH: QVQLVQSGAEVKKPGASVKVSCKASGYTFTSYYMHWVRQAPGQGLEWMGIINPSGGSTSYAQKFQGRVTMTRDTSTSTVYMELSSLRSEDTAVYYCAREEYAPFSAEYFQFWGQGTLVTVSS VL: EIVLTQSPATLSLSPGERATLSCRASQNVDHYLAWYQQKPGQAPRLLIYDASNRGTGIPARFSGSGSGTDFTLTISSLEPEDFAVYYCQQRSNWPPWTFGQGTKVEIKR , thanks.
A. 0.316
